Give measured inhibition for each item. Keep answers brief.
Target: Casein kinase I isoform gamma-1 (Homo sapiens);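 also: reported value is the mean inhibition of CK1 gamma-1 kinase activity across replicate measurements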
Conditions: at 1 µM
Reply numerically in %, unit not repeated.

inhibition in this record for COc1ccc2cc(-c3c(-c4ccncc4)nc(-c4ccc(S(C)(=O)=O)cc4C)n3C)ccc2c1 : 4.23

inhibition in this record for C[C@@H](Oc1cc(-n2cnc3ccc(OCC4CCN(C)CC4)cc32)sc1C(N)=O)c1ccccc1Cl : 8.54

inhibition in this record for Fc1ccc(-c2ncn(C3CCNCC3)c2-c2ccnc(Oc3ccc(Oc4ccccc4)cc3)n2)cc1 : 20.6

inhibition in this record for O=C(Nc1n[nH]c2cc(-c3cc(F)ccc3F)ccc12)C1CC1 : 3.73

inhibition in this record for NC(=O)c1cc(-c2ccncc2)cc(-c2ccccc2)c1N : 5.37

inhibition in this record for NCc1ccc(-n2c(-c3nonc3N)nc3cnccc32)cc1 : 8.48

inhibition in this record for CN(C)CCOc1ccc(-c2cc(-c3ccc4c(c3)CCC4=NO)c(-c3ccncc3)o2)cc1 : -0.13

inhibition in this record for COc1ccc(-c2ccc3c(NC(=O)C4CC4)n[nH]c3n2)cc1 : 2.17

inhibition in this record for O=C(NCC1CC1)c1ccc(-c2cccc(C(=O)NC3CC3)c2)cc1 : 3.84

inhibition in this record for COc1cc(Nc2ncc(-c3ccccc3)o2)cc(OC)c1OC : -0.76

inhibition in this record for Cc1ccc(C(=O)NC2CCC2)cc1-c1ccc(C(=O)NCC2CC2)cc1 : 3.13

inhibition in this record for CN1CCN(CCCNc2nc3ccc(Oc4ccc(NC(=O)Nc5cc(C(F)(F)F)ccc5F)cc4)cc3[nH]2)CC1 : -3.19

inhibition in this record for CCN(CC)Cc1ccc(Nc2nccc(-c3cnn4ncccc34)n2)cc1 : 6.01

inhibition in this record for COc1cc(Nc2ncc3c(C)nc(-c4cccc(Oc5ccccc5)c4)n3n2)cc(OC)c1OC : 3.71

inhibition in this record for Nc1nccc(-c2c(-c3ccc(F)cc3)ncn2C2CCC(O)CC2)n1 (stereo unspecified) : 5.79

inhibition in this record for c1ccc(Oc2ccc(Nc3ncc(-c4ccccc4)o3)cc2)cc1 : 2.02

inhibition in this record for Clc1ccc(CNc2nccc(-c3cnn4ncccc34)n2)cc1 : 7.72

inhibition in this record for NC(=O)c1ccc(Oc2nccc(-c3c(-c4ccc(F)cc4)ncn3C3CCNCC3)n2)cc1 : 9.98

inhibition in this record for CNC(=O)c1cncc(/C=C/c2c(C)cccc2C)c1 : -2.08

inhibition in this record for CS(=O)(=O)CCNCc1ccc(-c2ccc3ncnc(Nc4ccc(OCc5ccccc5)c(Br)c4)c3c2)o1 : -0.07

inhibition in this record for COC(=O)Nc1nc2ccc(Sc3ccc(NC(=O)Nc4cc(C(F)(F)F)ccc4F)cc3)cc2[nH]1 : 0.47

###

Give measured inhibition for each item. Keep answers brief.
Target: Fibroblast growth factor receptor 1 (Homo sapiens) (UniProt P11362);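 also: values are reported as mean percent inhibition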
Sequence (P11362 22-822 limits assumed): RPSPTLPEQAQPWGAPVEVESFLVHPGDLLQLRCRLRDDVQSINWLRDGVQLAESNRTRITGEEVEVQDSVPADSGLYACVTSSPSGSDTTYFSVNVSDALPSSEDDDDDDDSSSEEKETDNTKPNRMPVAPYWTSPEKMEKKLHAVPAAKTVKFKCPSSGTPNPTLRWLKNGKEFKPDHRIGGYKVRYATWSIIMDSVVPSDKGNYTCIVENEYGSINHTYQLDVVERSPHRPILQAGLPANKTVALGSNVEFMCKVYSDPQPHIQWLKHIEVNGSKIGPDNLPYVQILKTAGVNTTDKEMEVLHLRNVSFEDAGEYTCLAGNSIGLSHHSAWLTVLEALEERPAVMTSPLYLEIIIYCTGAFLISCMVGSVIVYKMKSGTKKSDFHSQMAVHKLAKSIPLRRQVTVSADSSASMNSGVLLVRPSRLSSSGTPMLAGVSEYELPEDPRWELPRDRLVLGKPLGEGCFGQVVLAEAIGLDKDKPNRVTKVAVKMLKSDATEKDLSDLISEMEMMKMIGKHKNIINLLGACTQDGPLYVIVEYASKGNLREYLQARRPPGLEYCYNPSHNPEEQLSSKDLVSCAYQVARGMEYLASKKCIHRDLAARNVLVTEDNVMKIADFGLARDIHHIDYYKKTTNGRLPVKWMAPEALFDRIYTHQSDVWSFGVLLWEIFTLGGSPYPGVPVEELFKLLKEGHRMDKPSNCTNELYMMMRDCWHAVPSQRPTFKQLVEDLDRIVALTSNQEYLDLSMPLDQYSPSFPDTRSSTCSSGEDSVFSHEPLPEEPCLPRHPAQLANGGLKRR
Conditions: at 0.1 µM
Reply numerically in %, unit not repeated.

inhibition in this record for COc1cc2ncn(-c3cc(OCc4cccs4)c(C(N)=O)s3)c2cc1OC : -3.02

inhibition in this record for CCS(=O)(=O)c1ccc(OC)c(Nc2ncc(-c3cccc(-c4ccccc4F)c3)o2)c1 : 6.92

inhibition in this record for O=C1Nc2ccc(I)cc2C1=Cc1cc(Br)c(O)c(Br)c1 : 5.92

inhibition in this record for COc1ccc2cc(-c3c(-c4ccncc4)nc(-c4ccc(S(C)(=O)=O)cc4C)n3C)ccc2c1 : 2.35

inhibition in this record for CN(C)c1ccc2c(c1)/C(=C/Nc1ccc(S(N)(=O)=O)cc1)C(=O)N2 : 3.54

inhibition in this record for NCc1ccc(-n2c(-c3nonc3N)nc3cnccc32)cc1 : 4.07

inhibition in this record for NS(=O)(=O)c1ccc(N/N=C2\C(=O)Nc3ccc(C(=O)NCCCn4ccnc4)cc32)cc1 : 1.31

inhibition in this record for Cc1ccc(C(=O)NC(C)C)cc1-c1ccc(C(=O)NCC2CC2)cc1 : -5.37

inhibition in this record for c1ccc(-c2n[nH]cc2-c2ccnc(-c3ccc(OCCN4CCOCC4)cc3)c2)nc1 : 3.52

inhibition in this record for COc1cc2ncn(-c3cc(OCCc4ccccc4)c(C(N)=O)s3)c2cc1OC : 14.8

###

Target: Serine/threonine-protein kinase Nek9 (Homo sapiens);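 also: reported value is the mean percent inhibition of NEK9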
Conditions: at 0.1 µM
attributeMeasured: inhibition (%)
Reply numerically in %, unit not repeated.

inhibition in this record for CNC(=O)c1cncc(/C=C/c2c(C)cccc2C)c1 : -0.53

inhibition in this record for COc1cc2ncn(-c3cc(OCCc4ccccc4)c(C(N)=O)s3)c2cc1OC : 1.66

inhibition in this record for COc1cc2ncn(-c3cc(OCc4ccccc4C(F)(F)F)c(C(C)=O)s3)c2cc1OC : 8.54

inhibition in this record for NS(=O)(=O)c1ccc(N/N=C2\C(=O)Nc3ccc(C(=O)NCCCn4ccnc4)cc32)cc1 : 9.43

inhibition in this record for COc1ccc2cc(-c3c(-c4ccncc4)nc(-c4ccc(S(C)(=O)=O)cc4C)n3C)ccc2c1 : 6.52

inhibition in this record for FC(F)(F)c1cccc(Nc2nccc(-c3cnn4nc(-c5ccccc5)ccc34)n2)c1 : 8.12

inhibition in this record for NC(=O)c1cc(-c2ccc(F)cc2)cc(-c2ccncc2)c1N : 7.94

inhibition in this record for COc1cc(Nc2ncc3c(C)nc(-c4cccc(C(F)(F)F)c4)n3n2)cc(OC)c1OC : 54.9

inhibition in this record for NC(=O)Cc1ccccc1Oc1nccc(-c2c(-c3ccc(F)cc3)ncn2C2CCNCC2)n1 : 10.9

inhibition in this record for O=C(Nc1n[nH]c2cc(-c3cc(F)ccc3F)ccc12)C1CC1 : 11.6

inhibition in this record for O=C1NC(=O)C(c2cccc(Cl)c2)=C1Nc1ccc(Cl)c(C(=O)O)c1 : -5.63

inhibition in this record for Fc1ccc(-c2ncn(CCCN3CCOCC3)c2-c2ccncc2)cc1 : 0.56

inhibition in this record for NC(=O)c1cc(-c2ccncc2)cc(-c2ccccc2)c1N : 9.48

inhibition in this record for COc1cc(C)c(N(C)C(=O)CN(C)C)cc1Nc1nc(Nc2cccc(F)c2C(N)=O)c2cc[nH]c2n1 : 5.24

inhibition in this record for CCc1ccc(Oc2nccc(-c3c(-c4ccc(F)cc4)ncn3C3CCNCC3)n2)cc1 : -0.95

inhibition in this record for CN(C)c1ccc2c(c1)/C(=C/Nc1ccc(S(N)(=O)=O)cc1)C(=O)N2 : -1.19

inhibition in this record for COc1cc2ncn(-c3cc(OCc4cccs4)c(C(N)=O)s3)c2cc1OC : 5.68

inhibition in this record for Fc1ccc(-c2ncn(C3CCNCC3)c2-c2ccnc(Oc3ccc4c(c3)OCO4)n2)cc1 : 7.85

###

Target: Rho-associated protein kinase 2 (Homo sapiens) (UniProt O75116);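 also: values are averaged inhibition readings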
Sequence (O75116 whole entry, looked up): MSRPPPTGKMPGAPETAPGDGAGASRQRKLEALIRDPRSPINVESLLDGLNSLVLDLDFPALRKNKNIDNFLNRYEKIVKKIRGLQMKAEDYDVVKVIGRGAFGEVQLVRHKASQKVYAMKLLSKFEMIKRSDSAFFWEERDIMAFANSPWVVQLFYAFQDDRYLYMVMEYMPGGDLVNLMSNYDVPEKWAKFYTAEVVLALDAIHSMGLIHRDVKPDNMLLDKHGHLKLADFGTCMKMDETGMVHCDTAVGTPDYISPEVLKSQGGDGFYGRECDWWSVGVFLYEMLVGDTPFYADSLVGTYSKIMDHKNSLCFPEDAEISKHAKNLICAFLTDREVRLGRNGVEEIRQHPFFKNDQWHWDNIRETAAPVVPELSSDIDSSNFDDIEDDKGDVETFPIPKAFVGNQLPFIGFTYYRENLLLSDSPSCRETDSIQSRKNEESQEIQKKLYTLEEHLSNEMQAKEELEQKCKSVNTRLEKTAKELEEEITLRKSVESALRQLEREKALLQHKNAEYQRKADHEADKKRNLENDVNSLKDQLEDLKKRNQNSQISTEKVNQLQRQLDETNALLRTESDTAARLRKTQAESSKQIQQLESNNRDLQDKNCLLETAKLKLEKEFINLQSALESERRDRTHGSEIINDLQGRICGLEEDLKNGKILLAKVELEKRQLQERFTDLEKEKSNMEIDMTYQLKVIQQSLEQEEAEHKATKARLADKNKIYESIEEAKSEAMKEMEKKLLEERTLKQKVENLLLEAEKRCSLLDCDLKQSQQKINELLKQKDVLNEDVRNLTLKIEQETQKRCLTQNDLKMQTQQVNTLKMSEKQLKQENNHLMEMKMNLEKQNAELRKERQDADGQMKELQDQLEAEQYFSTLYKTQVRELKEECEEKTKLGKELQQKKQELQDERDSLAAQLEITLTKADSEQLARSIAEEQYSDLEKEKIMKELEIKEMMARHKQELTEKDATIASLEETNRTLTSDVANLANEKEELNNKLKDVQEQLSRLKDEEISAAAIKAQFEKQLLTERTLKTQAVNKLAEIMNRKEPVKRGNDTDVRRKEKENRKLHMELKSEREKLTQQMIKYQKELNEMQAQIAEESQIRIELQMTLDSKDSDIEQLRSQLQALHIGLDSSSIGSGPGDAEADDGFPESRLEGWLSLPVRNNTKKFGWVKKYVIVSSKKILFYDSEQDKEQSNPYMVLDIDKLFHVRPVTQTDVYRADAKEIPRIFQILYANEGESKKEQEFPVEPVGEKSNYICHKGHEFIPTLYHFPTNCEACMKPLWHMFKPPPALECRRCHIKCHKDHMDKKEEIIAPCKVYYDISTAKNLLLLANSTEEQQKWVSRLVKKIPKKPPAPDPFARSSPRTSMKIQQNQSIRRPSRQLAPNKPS
Conditions: at 0.1 µM
Give measured inhibition for each item. Keep answers brief.
Reply numerically in %, unit not repeated.

inhibition in this record for COc1ccc(-c2ccc3c(NC(=O)C4CC4)n[nH]c3n2)cc1 : 1.6

inhibition in this record for COc1cc2ncn(-c3cc(OCc4ccccc4C(F)(F)F)c(C(C)=O)s3)c2cc1OC : 1.87

inhibition in this record for CCN(CC)Cc1ccc(Nc2nccc(-c3cnn4ncccc34)n2)cc1 : 2.02

inhibition in this record for NS(=O)(=O)c1ccc(N/N=C2\C(=O)Nc3ccc(-c4cnco4)cc32)cc1 : 16.3

inhibition in this record for O=C(Nc1n[nH]c2cc(-c3ccccc3)ccc12)C1CC1 : 2.59

inhibition in this record for CN(C)CCCNc1nccc(-c2c(-c3ccc(F)cc3)nn3cc(C(F)(F)F)ccc23)n1 : 1.71

inhibition in this record for NS(=O)(=O)c1ccc(N/N=C2\C(=O)Nc3ccc(C(=O)NCCCn4ccnc4)cc32)cc1 : 5.67

inhibition in this record for C/C(Nc1ccc(S(N)(=O)=O)cc1)=C1/C(=O)Nc2ccccc21 : 2.95

inhibition in this record for CS(=O)(=O)CCNCc1cc(-c2cc3c(Nc4ccc(OCc5cccc(F)c5)c(Cl)c4)ncnc3s2)cs1 : 3.92

inhibition in this record for COc1cccc(-n2cnc3c(N/N=C/c4ccncc4)ncnc32)c1 : 3.27

inhibition in this record for CCc1cccc(CC)c1/C=C/c1cncc(C(=O)NC)c1 : 1.66

inhibition in this record for CCc1nccc2c1nc(-c1nonc1N)n2CC : 1.91

inhibition in this record for O=C(Nc1n[nH]c2nc(-c3ccco3)ccc12)C1CC1 : 1.89

inhibition in this record for Fc1ccc(-c2ncn(CCCN3CCOCC3)c2-c2ccncc2)cc1 : 0.06

inhibition in this record for Cc1nnc(-c2ccc(C)c(-c3ccc(C(=O)NCc4ccc(Cl)cc4)cc3)c2)o1 : 3.86

inhibition in this record for COc1cc2ncn(-c3cc(OCc4cccs4)c(C(N)=O)s3)c2cc1OC : 3.91

inhibition in this record for CNC(=O)c1cncc(/C=C/c2c(C)cccc2C)c1 : 1.01

inhibition in this record for COC(=O)Nc1nc2ccc(Sc3ccc(NC(=O)Nc4cc(C(F)(F)F)ccc4F)cc3)cc2[nH]1 : 0.53

inhibition in this record for Fc1ccc(-c2nc3n(c2-c2ccncc2)CCS3)cc1 : 2.98

inhibition in this record for CN(C)CCOc1ccc(-c2cc(-c3ccc4c(c3)CCC4=NO)c(-c3ccncc3)o2)cc1 : -2.12

inhibition in this record for NC(=O)c1ccc(Oc2nccc(-c3c(-c4ccc(F)cc4)ncn3C3CCNCC3)n2)cc1 : 3.87

inhibition in this record for O=C(Nc1ccc(Oc2ccc3[nH]c(NC(=O)c4ccccc4)nc3c2)cc1)Nc1cc(C(F)(F)F)ccc1F : 3.35

inhibition in this record for Cc1ccc(C(=O)NC(C)C)cc1-c1ccc(C(=O)NCC2CC2)cc1 : -1.71

inhibition in this record for COc1ccc2ncn(-c3cc(O[C@H](C)c4ccccc4Cl)c(C(N)=O)s3)c2c1 : 1.42

inhibition in this record for O=C(Nc1n[nH]c2nc(-c3ccc(O)cc3)c(Br)cc12)C1CC1 : 4.18

inhibition in this record for COc1cc(N2CCN(C(C)C)CC2)ccc1Nc1nc(Nc2ccc(F)cc2C(=O)NC[C@@H](O)CO)c2cc[nH]c2n1 : 4.24

inhibition in this record for CCS(=O)(=O)c1ccc(OC)c(Nc2ncc(-c3ccccc3Cl)o2)c1 : 1.15

inhibition in this record for c1ccc(-c2n[nH]cc2-c2ccnc(-c3ccc(OCCN4CCOCC4)cc3)c2)nc1 : -0.2

inhibition in this record for COc1cccc(/C=N/Nc2ncnc3c2cnn3-c2cccc(OC)c2)c1 : 2.65

inhibition in this record for CN(C)c1ccc2c(c1)/C(=C/Nc1ccc(S(N)(=O)=O)cc1)C(=O)N2 : 5.46

inhibition in this record for O=C1NC(=O)C(c2cccc(Cl)c2)=C1Nc1ccc(Cl)c(C(=O)O)c1 : 1.95

inhibition in this record for COc1cc(Nc2ncc3c(C)nc(-c4cccc(Oc5ccccc5)c4)n3n2)cc(OC)c1OC : 0.99

inhibition in this record for O=C1Nc2ccccc2/C1=C/Nc1ccc(-n2cncn2)cc1 : 3.63

inhibition in this record for Cc1ccc(NC(=O)c2ccoc2)cc1-c1ccc(C(=O)NCC2CC2)cc1 : 0.78

inhibition in this record for Nc1nccc(-c2c(-c3ccc(F)cc3)ncn2C2CCC(O)CC2)n1 (stereo not drawn) : -1.47

inhibition in this record for Cc1ccc(C(=O)NC2CCC2)cc1-c1ccc(C(=O)NCC2CC2)cc1 : 1.03

inhibition in this record for COc1ccc2cc(-c3c(-c4ccncc4)nc(-c4ccc(S(C)(=O)=O)cc4C)n3C)ccc2c1 : 10.5

inhibition in this record for COc1cc(C)c(N(C)C(=O)CN(C)C)cc1Nc1nc(Nc2cccc(F)c2C(N)=O)c2cc[nH]c2n1 : 0.89
